target: Hexose transporter 1 (Plasmodium falciparum) (UniProt O97467); test: ST_JUDE_LEISH: Cytotoxicity at 2uM final concentration against transgenic Leishmania Mexicana promastigotes LmPfHT that are glucose transport deficient and complemented with the Plasmodium falciparum hexose transporter. Activity is measured by DNA content using SYBR green in vitro; format: functional
# inhibition listing for each entry below
Dear colleague, please return just the value in %, with no unit written.

Example entries and their recorded answers appear below.
# MOLECULE, TESTED ON, READOUT UNITS, TEST VALUE
measured = [
    ("CC1(C)C2C=C(CN3CCC(NC(=O)Nc4ccc(Cl)c(Cl)c4)CC3)C1CC2 (stereo not drawn)", "Hexose transporter 1 (Plasmodium falciparum) (UniProt O97467)", "%", 7.57),
    ("Cc1ccc(CN2CCCN(Cc3cccc(NC(=O)c4cc5ccccc5s4)c3)CC2)cc1C", "Hexose transporter 1 (Plasmodium falciparum) (UniProt O97467)", "%", 0.71),
    ("CN(C)CC(=O)Nc1ccc(-c2ccc3ccnc(N)c3c2)cc1", "Hexose transporter 1 (Plasmodium falciparum) (UniProt O97467)", "%", 24.3),
]

For reference, reported inhibition for Cc1ccc(-c2cc(C(=O)Nc3ccc(S(=O)(=O)N4CC(C)OC(C)C4)cc3)[nH]n2)c(O)c1 (stereo not drawn) stands at 2.68

For reference, reported inhibition for COCCNCc1cccc(-c2ccccc2CN(C(=O)c2ccc3c(c2)OCO3)c2ccc(OC)cc2)c1 stands at 4.93

For reference, reported inhibition for CCN(CC)CCOc1ccc(Nc2ncc3cc(-c4c(Cl)cccc4Cl)c(=O)n(C)c3n2)cc1 stands at 83.3

For reference, reported inhibition for Nc1ccc2[nH]cc(C3CCN(CCC4CCN(C(=O)/C=C/c5ccc(Cl)c(Cl)c5)CC4)CC3)c2n1 stands at -0.31

For reference, reported inhibition for COc1ccc(NC(=O)Nc2ccc(-c3cccc(-c4nc5ccccc5[nH]4)c3)cc2)cc1 stands at 3.12
